B1: ZBED3 (parent)
chain: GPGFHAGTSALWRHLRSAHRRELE

variants of: B1; experiment: protein stability index of a GFP-peptide fusion (GPS, HEK-293T) (PSI 1-6); higher = more stable; conditions: c terminus: a fixed tail appended;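 also: lentivirally expressed fusions sorted by FACS into six bins by GFP to DsRed ratio, PSI derived from sequencing read proportions per bin multiplied by bin number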
readout-type: protein stability index

# mutations, result-value
data = [
    ("A10Q", 2.43),
    ("G3R", 3.96),
    ("R21G", 1.75),
    ("T8Q", 1.98),
    ("P2S", 2.92),
    ("G1K", 3.07),
    ("R16T", 2.23),
    ("S9K", 2.68),
    ("G1R", 3.02),
    ("R21M", 1.9),
    ("L23C", 2.14),
    ("W12F", 2.1),
    ("L15W", 2.7),
    ("A18F", 2.07),
    ("R21S", 1.84),
    ("L23I", 2.19),
    ("H5S", 2.95),
    ("R21Y", 2.14),
    ("S9D", 2.99),
    ("A10T", 3.08),
    ("E24G", 1.76),
    ("R21L", 1.77),
    ("A18R", 3.02),
    ("H19P", 2.11),
    ("A18I", 2.12),
    ("L15P", 1.76),
    ("F4W", 2.22),
    ("G3Q", 2.45),
    ("F4V", 3),
    ("R16A", 2.45),
    ("P2N", 3.5),
    ("G3K", 3.26),
    ("G1I", 2.76),
    ("H14S", 2.2),
    ("A18N", 2.45),
    ("H14L", 2.62),
    ("P2K", 3.06),
    ("E22M", 2.38),
    ("S9H", 2.53),
    ("P2A", 3.48),
    ("L11S", 2.03),
    ("H5L", 2.24),
    ("H19C", 2.7),
    ("A10N", 2.67),
    ("L11M", 2.64),
    ("G3D", 3.13),
]
